Quick list: Potency Luciferase per entry.
TARGET ENTITY: T1, Amylin 3(a) receptor (human calcitonin receptor (CTa) with RAMP-3) (human, UniProt P30988 25-474; O60896 24-148, limits assumed)
T1 sequence (looked up) 1: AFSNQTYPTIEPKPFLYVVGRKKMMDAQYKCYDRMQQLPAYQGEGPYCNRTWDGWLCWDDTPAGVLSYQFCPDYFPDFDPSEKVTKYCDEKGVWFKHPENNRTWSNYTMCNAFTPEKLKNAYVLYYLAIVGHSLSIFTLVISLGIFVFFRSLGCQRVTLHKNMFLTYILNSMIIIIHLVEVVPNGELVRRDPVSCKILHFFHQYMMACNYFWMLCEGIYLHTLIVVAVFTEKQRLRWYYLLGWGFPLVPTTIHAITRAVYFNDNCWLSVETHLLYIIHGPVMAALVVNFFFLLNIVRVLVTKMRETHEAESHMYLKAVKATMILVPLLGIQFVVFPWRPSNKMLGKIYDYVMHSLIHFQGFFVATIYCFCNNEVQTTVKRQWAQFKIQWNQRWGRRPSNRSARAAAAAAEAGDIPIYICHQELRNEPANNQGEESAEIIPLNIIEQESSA
T1 sequence (looked up) 2: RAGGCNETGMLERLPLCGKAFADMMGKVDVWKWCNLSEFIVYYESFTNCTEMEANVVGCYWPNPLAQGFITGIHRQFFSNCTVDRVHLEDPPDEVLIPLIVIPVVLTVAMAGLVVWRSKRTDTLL
ASSAY DETAILS: cell-based or functional assay
Bridges are numbered along the chain shown (N, C = ends). Where no end group is shown, it is not given here. The star is where a group is joined. C20 diacid = O=C(O)CCCCCCCCCCCCCCCCCCC(=O)*
The reply should be a number in pmol/L, with the unit left off.

Exercise: Consider the binder {C20 diacid-4‑aminobutyryl}-RKCNTATCATQRLANFLRHSSNNFGPILPPTNVGSNTY-NH2 (disulfide 3-8) [N-alpha-[4-(19-Carboxynonadecanoylamino)butyryl]-Arg-[Arg17]-pramlintide] and give its measured Potency Luciferase.
Key: 30

Exercise: Consider the binder RCNTATCATQRLANFLHHSSNNFGPILPPTNVGSNTY-NH2 (disulfide 2-7; not fully specified (N-terminus); printed as N-alpha-[3-(2-{2-[2-(2-{2-[2-(2-{2-[(S)-4-Carboxy-4-(17-carboxyheptadecanoylamino) butyrylamino]ethoxy}ethoxy)ethoxy]ethoxy}ethoxy)ethoxy]ethoxy}ethoxy)propionylamino][Arg1,His17]-pramlintide) [N-alpha-[3-(2-{2-[2-(2-{2-[2-(2-{2-[(S)-4-Carboxy-4-(17-carboxyheptadecanoylamino) …] and give its measured Potency Luciferase.
Key: 80

Exercise: Consider the binder HHRCNTATCATQRLANFLHHSSNNFGPILPPTNVGSNTY-NH2 (disulfide 4-9; not fully specified (N-terminus); printed as N-alpha-[(S)-4-Carboxy-4-(19-carboxynonadecanoylamino)butyryl]-His-His-[Arg1,His17]-pramlintide) [N-alpha-[(S)-4-Carboxy-4-(19-carboxynonadecanoylamino)butyryl]-His-His-[Arg1,His17]-pramlintide] and give its measured Potency Luciferase.
Key: 90

Origin of values: patent US20110105394A1
